Origin of values: patent US4110328A

System: Ps. aeruginosa
Test: Serial dilution MIC test, Ps. aeruginosa
Format: cell-based
Conditions: Pseudomonas aeruginosa; trypticase soy broth, 37° C, 36 hours; read-out: MINIMUM INHIBITORY CONCN. Ps. aeruginosa
Where a name gives a salt, the structure may show the parent alone.
Recorded MIC, one value per entry.
Field: numeric (µg/mL). Do not append units.

Would you please look over these solved cases?
CCCCCC(C)NC(=O)NC(=N)NCCCN1CCN(CCCNC(=N)NC(=O)NC(C)CCCCC)CC1 (stereo not shown) [dihydrochloride] ... 25
N=C(NCCCN1CCN(CCCNC(=N)NC(=O)NC2CCCCC2)CC1)NC(=O)NC1CCCCC1 ... 100
N=C(NCCCN1CCN(CCCNC(=N)NC(=O)NCC2CCCCC2)CC1)NC(=O)NCC1CCCCC1 ... 100
N=C(NCCCN1CCN(CCCNC(=N)NC(=O)NCC2CCCCCC2)CC1)NC(=O)NCC1CCCCCC1 ... 12.5
N=C(NCCN1CCN(CCNC(=N)NC(=O)NC23CC4CC(CC(C4)C2)C3)CC1)NC(=O)NC12CC3CC(CC(C3)C1)C2 ... 6.25
[H]/N=C(\N/C(=N/[H])NCCCCCCNC(=N)NC(=N)Nc1ccc(Cl)cc1)Nc1ccc(Cl)cc1 ... 50

// returns MIC for N=C(NCCCN1CCN(CCCNC(=N)NC(=O)NC23CC4CC(CC(C4)C2)C3)CC1)NC(=O)NC12CC3CC(CC(C3)C1)C2 with Ps. aeruginosa; value = 50

---

Test system: S. Mutans, Strain OMZ-176E
Assay: Serial dilution minimum inhibitory concentration (MIC) test, S. mutans
Format: cell-based
Conditions: Streptococcus mutans, half strength brain-heart infusion broth, 37° C, 36 hours
Counter-ions that a name gives are not always drawn.
quantityName: MIC (µg/mL)
Field: numeric (µg/mL). Do not append units.

Would you please look over these solved cases?
CN(CCNC(=N)NC(=O)Nc1ccc(Cl)cc1)CCN(C)CCNC(=N)NC(=O)Nc1ccc(Cl)cc1 ... 1.25
CCCCC(CC)CNC(=O)NC(=N)NCCCN1CCN(CCCNC(=N)NC(=O)NCC(CC)CCCC)CC1 (stereo not shown) [dihydrochloride] ... 5
N=C(NCCCN1CCN(CCCNC(=N)NC(=O)NCCc2ccc(Cl)cc2)CC1)NC(=O)NCCc1ccc(Cl)cc1 [dihydrochloride] ... 1.25
CCCCCCCCNC(=O)NC(=N)NCCCN1CCN(CCCNC(=N)NC(=O)NCCCCCCCC)CC1 [dihydrochloride] ... 2.5

Okay, now this compound:
The recorded MIC for entry Cl.Cl.N=C(NCCCN1CCN(CCCNC(=N)NC(=O)NCC2CCCCC2)CC1)NC(=O)NCC1CCCCC1 equals 1.25
